The measurements presented in this section are drawn from patent US20230250096A1.

Target: menin/MLL (terbium chelate-labeled menin, FITC-MBM1 peptide) (Homo sapiens, UniProt O00255, T541A)
Construct: Menin (a.a 1-610-6xhis tag, 2.3 mg/mL in 20 mM Hepes)
Sequence (O00255 with tags, fused parts or gaps T541A): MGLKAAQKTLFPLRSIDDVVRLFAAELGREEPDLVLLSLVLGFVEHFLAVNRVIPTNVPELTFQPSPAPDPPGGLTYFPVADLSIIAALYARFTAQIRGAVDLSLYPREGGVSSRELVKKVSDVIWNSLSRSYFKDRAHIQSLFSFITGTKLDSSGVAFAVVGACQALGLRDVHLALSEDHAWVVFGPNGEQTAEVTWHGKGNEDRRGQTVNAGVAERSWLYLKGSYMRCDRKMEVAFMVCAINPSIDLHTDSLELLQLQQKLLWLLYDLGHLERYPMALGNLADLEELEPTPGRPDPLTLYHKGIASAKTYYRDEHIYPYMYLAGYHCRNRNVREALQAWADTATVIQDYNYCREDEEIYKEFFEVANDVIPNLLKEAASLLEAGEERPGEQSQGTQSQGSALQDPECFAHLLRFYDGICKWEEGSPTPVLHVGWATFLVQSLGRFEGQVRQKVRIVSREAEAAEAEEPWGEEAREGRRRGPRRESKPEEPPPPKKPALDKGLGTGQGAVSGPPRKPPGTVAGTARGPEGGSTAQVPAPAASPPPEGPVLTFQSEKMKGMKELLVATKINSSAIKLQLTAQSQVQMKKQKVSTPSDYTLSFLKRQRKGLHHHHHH
Assay: Menin/MLL homogenous time-resolved fluorescence (HTRF) assay
Conditions: 30 min incubation
Value type: IC50 (nM)

See these solved cases before continuing.
Using known records, supply IC50 for `CC(=O)N1CC(CN2CC(Cc3cn(-c4ccc(F)cc4C(=O)N(C)C(C)C)c4cncc(C)c34)C2)C1`
0.173

Using known records, supply IC50 for Cc1cncc2c1c(CC1CN(CC3CCOCC3)C1)cn2-c1ccc(F)cc1[S@](=N)(=O)C(C)C (single isomer, unassigned) [Compound 167a]
0.19

Using known records, supply IC50 for Cc1cncc2c1c(C[C@H]1CCN(CC3COC3)C1)cn2-c1ccc(F)cc1C(=O)N(C)C(C)C (single isomer, unassigned)
0.042

Using known records, supply IC50 for `Cc1cncc2c1c(CC1CN(CC3CCOCC3)C1)cn2-c1ccc(F)cc1C(=O)N(C)C1CC1`
0.097

P. CCC([C@H]1C[C@@H](N2C[C@H]3CN(C(C)=O)C[C@@H]3C2)C1)N1CC[C@H](Cc2cn(-c3ccc(F)cc3C(=O)N(C)C(C)C)c3cncc(C)c23)C1 (mixture of isomers)
Q. Cc1cncc2c1c(CC1CN(CC3CCOCC3)C1)cn2-c1ccc(F)cc1C(=O)N(CCO)C1CC1
Endpoint returns the identifier whose IC50 is numerically larger, either P or Q . Response format: the label of the selected entry.
Q

====

biological target: menin/MLL (terbium chelate-labeled menin, FITC-MBM1 peptide) (Homo sapiens, UniProt O00255, T541A); construct: Menin (a.a 1-610-6xhis tag, 2.3 mg/mL in 20 mM Hepes); assay: Menin/MLL homogenous time-resolved fluorescence (HTRF) assay; conditions: 30 min incubation
pIC50: −log10 of the molar value.
Value type: pIC50

Using known records, supply pIC50 for Cc1cncc2c1c(CC1CN(CC3CCOCC3)C1)cn2-c1ccc(F)cc1C(=O)N1CCC(O)C1C (stereo not shown)
9.43

Using known records, supply pIC50 for CC(=O)N1CCCC(N2CC(Cc3cn(-c4ccc(F)cc4C(=O)N(C)C(C)C)c4cncc(C)c34)C2)CC1 (stereo not shown)
9.77

Using known records, supply pIC50 for COCCN(C)CCCC(C(C)C)N1CC[C@@H](Cc2cn(-c3ccc(F)cc3C(=O)N(C)C(C)C)c3cncc(C)c23)C1 (stereo partly shown)
10.48

Using known records, supply pIC50 for CC(=O)N1CC2CC(C1)C2N1CC[C@H](Cc2cn(-c3ccc(F)cc3C(=O)N(C)C(C)C)c3cncc(C)c23)C1 (stereo partly shown)
9.83

Using known records, supply pIC50 for CNC(=O)[C@H]1CC[C@H]([C@@H](C)N2CC(Cc3cn(-c4ccc(F)cc4C(=O)N(C)C(C)C)c4cncc(C)c34)C2)CC1 (single isomer, unassigned)
9.30

I. Cc1cncc2c1c(CC1CN(CC3CCC(=O)NC3)C1)cn2-c1ccc(F)cc1C(=O)N(C)C(C)C (stereo not shown)
II. Cc1cncc2c1c(C[C@@H]1CCN(CC3CCOCC3)C1)cn2-c1ccc(F)cc1C(=O)N1CCC[C@]1(C)CO (single isomer, unassigned) [Compound 362a]
Just tell me: smaller pIC50 value, I or II ? Response format: the label of the selected entry.
II
(II: 9.83, I: 10.27)

====

molecular target: menin/MLL (terbium chelate-labeled menin, FITC-MBM1 peptide) (Homo sapiens, UniProt O00255, T541A); construct: Menin (a.a 1-610-6xhis tag, 2.3 mg/mL in 20 mM Hepes); assay: Menin/MLL homogenous time-resolved fluorescence (HTRF) assay; conditions: 30 min incubation
pIC50: −log10 of the molar value.
Value type: pIC50

See these solved cases before continuing.
Using known records, supply pIC50 for Cc1cncc2c1c(CC1CN([C@@H](C(C)C)[C@H]3C[C@@H](N4CCN(S(C)(=O)=O)CC4)C3)C1)cn2-c1ccc(F)cc1C(=O)N(C)C(C)C (single isomer, unassigned) [Compound 34a]
10.72

Using known records, supply pIC50 for Cc1cncc2c1c(CC1CN(C[C@H]3CC[C@H](C(=O)N(C)C)CC3)C1)cn2-c1ccc(F)cc1C(=O)N(C)C(C)C [Compound 142]
10.07

Using known records, supply pIC50 for Cc1cncc2c1c(CC1CCN(C[C@@H]3CCC(=O)N3)CC1)cn2-c1ccc(F)cc1C(=O)N(C)C(C)C [Compound 105]
9.14

Using known records, supply pIC50 for Cc1cncc2c1c(C[C@H]1CCN(CC3CCS(=O)(=O)CC3)C1)cn2-c1ccc(F)cc1C(=O)N(C)C(C)C (single isomer, unassigned) [Compound 124]
9.81

Using known records, supply pIC50 for CNC(=O)[C@H]1CC[C@H](CN2CC([C@H](C)c3cn(-c4ccc(F)cc4C(=O)N(C)C(C)C)c4cncc(C)c34)C2)CC1 (single isomer, unassigned) [Compound 164b]
10.60

P. Cc1cncc2c1c(C[C@@H]1CCN(CC3CCOCC3)C1)cn2-c1ccc(F)cc1C(=O)N1CCCC1C(C)O (single isomer, unassigned) [Compound 363b]
Q. CC(=O)N1CCC(N2CC[C@H](Cc3cn(-c4ccc(F)cc4C(=O)N(C)C(C)C)c4cncc(C)c34)C2)CC1 [Compound 156]
R. CC(=O)N[C@H]1CC[C@H](CN2CCC(Cc3cn(-c4ccc(F)cc4C(=O)N(C)C(C)C)c4cncc(C)c34)C2)CC1 (single isomer, unassigned) [Compound 72]
Hey, can you sort those compounds up there by pIC50, smallest first? A complete answer lists every label in the requested sequence.
R, P, Q

I. CC(=O)N1C[C@@H]2CN(CCC[C@@H](C(C)C)N3CC[C@H](Cc4cn(-c5ccc(F)cc5C(=O)N(C)C(C)C)c5cncc(Cl)c45)C3)C[C@H]2C1 (single isomer, unassigned) [Compound 19b]
II. CC(=O)N1CCC(CN2CC[C@@H](Cc3cn(-c4ccc(F)cc4C(=O)N4CCC[C@@H]4CO)c4cncc(C)c34)C2)CC1 [Compound 322]
Just tell me: smaller pIC50 value, I or II ? Response format: the label of the selected entry.
II
(II: 9.82, I: 10.19)

====

test system: KO-52 cells; experiment: Proliferation assay (spheroid confluence, 8 days), KO-52 control cell line; type: cell-based, human; conditions: Homo sapiens, read-out: spheroid assay_KO-52 IC50
Recorded IC50 by entry
Provide only the numeric value, understood in nM.

See these solved cases before continuing.
Using known records, supply IC50 for COCCN(C)CCCC(C(C)C)N1CC[C@H](Cc2cn(-c3ccc(F)cc3C(=O)N(C)C(C)C)c3cncc(Cl)c23)C1 (stereo partly drawn)
3000

Using known records, supply IC50 for CCN(C(=O)c1cc(F)ccc1-n1cc(CC2CN(C(C(C)C)[C@H]3C[C@@H](N4CCN(S(C)(=O)=O)CC4)C3)C2)c2c(C)cncc21)C(C)C (stereo partly drawn) [Compound 37a]
800

Using known records, supply IC50 for CC(=O)N1CCN(CCCC(C(C)C)N2CC[C@@H](Cc3cn(-c4ccc(F)cc4C(=O)N(C)C(C)C)c4cncc(C)c34)C2)CC1 (mixture of isomers)
2400

Using known records, supply IC50 for CCN(C(=O)c1cc(F)ccc1-n1cc(CC2CN(C(C(C)C)[C@H]3C[C@H](N4C[C@H]5CN(C(C)=O)C[C@@H]5C4)C3)C2)c2c(C)cncc21)C(C)C (mixture of isomers) [Compound 38b]
1200

Using known records, supply IC50 for `Cc1cncc2c1c(C[C@@H]1CCN(CC3CCOCC3)C1)cn2-c1ccc(F)cc1C(=O)N(CCO)C(C)C`
3000

Others:
Using known records, supply IC50 for CC(=O)N1CCC(CN2CC[C@@H](Cc3cn(-c4ccc(F)cc4C(=O)N(C)C(C)C)c4cncc(C)c34)C2)CC1 (single isomer, unassigned)
2300

Using known records, supply IC50 for Cc1cncc2c1c(C[C@H]1CCN([C@H](C)C3CCOCC3)C1)cn2-c1ccc(F)cc1[S@](=N)(=O)C(C)C (single isomer, unassigned) [Compound 181a]
4100

Using known records, supply IC50 for Cc1cncc2c1c(C[C@@H]1CCN(CC(C)C)C1)cn2-c1ccc(F)cc1C(=O)N(C)C(C)C (single isomer, unassigned)
4700

Using known records, supply IC50 for CC(=O)N1CCC(N2CC[C@H](Cc3cn(-c4ccc(F)cc4C(=O)N(C)C(C)C)c4cncc(C)c34)C2)C(C)C1 (single isomer, unassigned) [Compound 137a]
1100
